Biological target: HNF4alpha8 (COS-7 nuclear extract) (Homo sapiens, UniProt P41235-5 1-452)
Sequence: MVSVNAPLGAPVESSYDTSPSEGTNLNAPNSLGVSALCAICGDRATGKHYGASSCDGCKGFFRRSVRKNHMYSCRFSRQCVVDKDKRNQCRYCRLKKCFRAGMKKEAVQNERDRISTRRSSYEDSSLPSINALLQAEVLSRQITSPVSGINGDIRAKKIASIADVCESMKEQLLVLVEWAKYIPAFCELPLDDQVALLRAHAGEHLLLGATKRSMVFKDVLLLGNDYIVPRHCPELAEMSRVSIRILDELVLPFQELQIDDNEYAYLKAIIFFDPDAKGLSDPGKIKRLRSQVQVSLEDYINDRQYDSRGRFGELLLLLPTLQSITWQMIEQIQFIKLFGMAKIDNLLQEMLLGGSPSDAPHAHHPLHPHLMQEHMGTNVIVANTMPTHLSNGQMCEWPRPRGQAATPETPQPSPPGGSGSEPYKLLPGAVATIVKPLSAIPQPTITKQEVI
Test: protein-binding microarray; COS-7 nuclear extract on double-stranded Agilent 4x180k PBM; binding buffer, salt, pH and temperature not given in the material; high values mean tight binding
Settings: chain copies: 2; label: 3' end of strand 1 on the slide; dsDNA, one strand shown
Over roughly 18,000 sequences, “log2 normalized intensity” has its median near 0.36; the highest 2% begin near 7.3. Many of the other results were omitted from the sample, so the highest values are more common in it than they were.
Quantity measured: binding signal (log2 normalized intensity)
Use log2 normalized intensity as the unit, but write only the number.

CTGATGCCCTTTGGATTTAGGCAGTTTTTGGCCTAGGGAGATTAGAGTATCGGTCGA
2.92

Challenge: Entry under review: ATGGAGCTGGAGGGCAAAGGTCAGAGGCTGGCCTAGGGAGATTAGAGTATCGGTCGA . Reported binding signal?
Response given: 6.88

Challenge: Entry under review: AGATCATCCTGCAGTTCCTGATCTTTGACCGCCTAGGGAGATTAGAGTATCGGTCGA . Reported binding signal?
Response given: 7.84

Challenge: Entry under review: TATGAGAGAGAGAGAGAGGTGGGCAAAGGTGCCTAGGGAGATTAGAGTATCGGTCGA . Reported binding signal?
Response given: 1.33

Challenge: Entry under review: AATTCCAGTTTGGACTTTGATCCTGATGACGCCTAGGGAGATTAGAGTATCGGTCGA . Reported binding signal?
Response given: 10

Challenge: Entry under review: CTTTCTATCAGCTCTCCGTGGACTTTGCCCGCCTAGGGAGATTAGAGTATCGGTCGA . Reported binding signal?
Response given: 9.95

Challenge: Entry under review: GGGTCATGGAGCTGGAGGGCAAAGGTCAGAGCCTAGGGAGATTAGAGTATCGGTCGA . Reported binding signal?
Response given: 8.54

Challenge: Entry under review: ATCCTGCAGTTCCTGATCTTTGACCTGGAGGCCTAGGGAGATTAGAGTATCGGTCGA . Reported binding signal?
Response given: 6.23

Challenge: Entry under review: GGAGAGAGTTTGGCCCCAGTTCCCATGGACGCCTAGGGAGATTAGAGTATCGGTCGA . Reported binding signal?
Response given: 1.45
